Target: Lysine-specific demethylase 5A (Homo sapiens)
Sequence (P29375 whole entry): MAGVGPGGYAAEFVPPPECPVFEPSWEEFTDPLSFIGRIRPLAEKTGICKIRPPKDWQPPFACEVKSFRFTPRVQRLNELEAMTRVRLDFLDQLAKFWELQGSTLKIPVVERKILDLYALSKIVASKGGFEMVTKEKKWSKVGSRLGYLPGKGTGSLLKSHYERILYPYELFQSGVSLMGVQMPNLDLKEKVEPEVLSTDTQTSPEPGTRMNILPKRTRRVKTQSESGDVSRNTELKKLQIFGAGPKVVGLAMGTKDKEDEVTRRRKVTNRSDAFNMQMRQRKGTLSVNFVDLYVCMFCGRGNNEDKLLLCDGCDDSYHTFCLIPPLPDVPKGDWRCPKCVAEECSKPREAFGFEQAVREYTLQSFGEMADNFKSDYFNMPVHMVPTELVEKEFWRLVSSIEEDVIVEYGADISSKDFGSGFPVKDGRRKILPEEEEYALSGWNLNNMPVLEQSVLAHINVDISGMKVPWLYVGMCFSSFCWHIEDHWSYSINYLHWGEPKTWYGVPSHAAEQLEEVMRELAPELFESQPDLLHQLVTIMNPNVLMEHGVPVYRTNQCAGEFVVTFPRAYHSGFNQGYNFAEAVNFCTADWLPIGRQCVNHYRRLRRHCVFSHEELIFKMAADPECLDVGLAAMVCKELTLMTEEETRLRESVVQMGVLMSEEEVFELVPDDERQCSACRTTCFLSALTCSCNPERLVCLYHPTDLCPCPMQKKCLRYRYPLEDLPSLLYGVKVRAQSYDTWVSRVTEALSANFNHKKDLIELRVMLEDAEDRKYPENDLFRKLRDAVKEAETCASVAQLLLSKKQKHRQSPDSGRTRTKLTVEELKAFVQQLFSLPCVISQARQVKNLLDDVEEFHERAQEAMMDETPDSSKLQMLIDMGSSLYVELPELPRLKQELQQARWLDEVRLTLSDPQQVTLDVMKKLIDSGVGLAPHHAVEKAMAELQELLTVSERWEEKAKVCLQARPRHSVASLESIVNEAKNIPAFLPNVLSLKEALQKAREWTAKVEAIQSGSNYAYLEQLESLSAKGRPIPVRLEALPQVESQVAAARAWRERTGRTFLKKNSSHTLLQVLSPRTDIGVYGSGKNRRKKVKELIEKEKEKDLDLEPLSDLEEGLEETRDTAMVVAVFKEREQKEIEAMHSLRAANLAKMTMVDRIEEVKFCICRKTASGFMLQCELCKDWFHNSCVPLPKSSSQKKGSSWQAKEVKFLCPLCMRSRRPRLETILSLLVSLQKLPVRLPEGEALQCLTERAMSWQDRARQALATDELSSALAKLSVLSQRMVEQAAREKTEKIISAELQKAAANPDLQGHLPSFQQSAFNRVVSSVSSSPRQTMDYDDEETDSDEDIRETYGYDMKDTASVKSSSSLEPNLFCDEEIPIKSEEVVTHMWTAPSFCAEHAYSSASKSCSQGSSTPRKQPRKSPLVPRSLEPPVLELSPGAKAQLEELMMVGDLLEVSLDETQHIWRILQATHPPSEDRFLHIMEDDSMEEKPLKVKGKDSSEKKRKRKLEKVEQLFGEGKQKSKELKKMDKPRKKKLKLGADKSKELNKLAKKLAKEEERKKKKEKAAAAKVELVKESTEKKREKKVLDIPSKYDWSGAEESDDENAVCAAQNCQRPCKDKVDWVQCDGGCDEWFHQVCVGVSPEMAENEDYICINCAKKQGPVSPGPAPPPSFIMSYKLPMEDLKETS
pIC50: −log10 of the molar value.
quantity: pIC50

- N#Cc1cnn2c(=O)c3c([nH]c12)CCCC3: 6.00

====

Below are IC50 values measured for Lysine-specific demethylase 5A (Homo sapiens).
quantity: IC50

* Oc1nc(Oc2cnn(CCN3CCOCC3)c2)nc2cnccc12 | < 100 nM
* O=C(NCCCc1ccccc1)c1cccc(-c2cc(O)c3ncccc3c2)c1 | > 10000 nM
* CCS(=O)(=O)N1CC[C@H](n2cc(Oc3nc(O)c4ccncc4n3)cn2)C1 | < 100 nM
* Oc1nc(Oc2cnn([C@@H]3CCCN(Cc4ccccc4)C3)c2)nc2cnccc12 | < 100 nM
* Cn1cnc(-c2nccc3c(O)nc(OCCCC(F)(F)F)nc23)c1 | < 100 nM
